# subjectOfTest: human EP4 (hEP4) receptor (Homo sapiens)
# test: In vitro human EP4 functional antagonist activity using BRET biosensors (cAMP EPAC biosensor, TCS2510 stimulation)
# conditionsUsed: antagonist activity vs EC60 TCS2510, hEP4 in HEK-293 T cells
Where a name gives a salt, the structure may show the parent alone.
quantity: IC50

The cases that follow already have their IC50 on record.
>>> result("C[C@H](NC(=O)C1(N2CC[C@@H](Oc3cccc(C(F)(F)F)c3)C2)CCOCC1)c1ccncc1 [Example 184, hydrochloride]")
"< 1000 nM"
>>> result("COc1ccc([C@H](C)NC(=O)C2(N3CC[C@@H](Oc4cccc(C(F)(F)F)c4)C3)CCOCC2)cc1 [Example 195, hydrochloride]")
"< 100 nM"

What IC50 appears in the records for this compound with human EP4 (hEP4) receptor (Homo sapiens)? COc1cccc([C@H](C)NC(=O)C2(N3CC[C@@H](Oc4cccc(C(F)(F)F)c4)C3)CCOCC2)c1 [Example 196, hydrochloride] < 1000 nM

Fill in the recorded IC50 for this compound, with human EP4 (hEP4) receptor (Homo sapiens) as test system: "C[C@H](NC(=O)C1(c2cccc(OC3CCCCC3)c2)CCOCC1)c1ccc(C(=O)O)cc1" < 1000 nM

====

# subjectOfTest: human EP4 (hEP4) receptor (Homo sapiens)
# test: In vitro human EP4 functional antagonist activity using BRET biosensors (cAMP EPAC biosensor, TCS2510 stimulation)
# conditionsUsed: antagonist activity vs EC60 TCS2510, hEP4 in HEK-293 T cells
pIC50: −log10 of the molar value. Structures can show the parent of a compound that is named as a salt.
Entries annotated with measured pIC50

>>> result("C[C@H](NC(=O)C1(NCCOc2ccc(Cl)cc2)CCOCC1)c1ccc(C(=O)O)cc1 [Example 11, hydrochloride]")
"> 6.00"
>>> result("CN(CCOc1cccc(C#N)c1)C1(C(=O)NC2(c3ccc(C(=O)O)cc3)CC2)CCOCC1 [Example 46, hydrochloride]")
"> 6.00"

# lookup: pIC50 of "C[C@H](NC(=O)C1(c2cccc(OCc3ccccc3)c2)CCOCC1)c1ccc(C(=O)O)cc1" > 6.00

Which pIC50 value is on record for CCCC(C)COc1ccc(C2(C(=O)N[C@@H](C)c3ccc(C(=O)O)cc3)CCOCC2)cc1 (some centres unmarked) ? > 6.00

If you can, please state the reported pIC50 value of "C[C@H](NC(=O)C(C)(C)N1CC[C@@H](COc2cccc(Cl)c2)C1)c1ccc(C(=O)O)cc1" . > 7.00

Given the compound CN(CCOc1ccccc1Cl)C1(C(=O)NC2(c3ccc(C(=O)O)cc3)CC2)CCOCC1 [Example 30, hydrochloride] , what is its reported pIC50? > 7.00

Returns the measured pIC50 for the input compound. Input: C[C@H](NC(=O)C1(N2CC[C@@H](Oc3cccc(C(F)(F)F)c3)C2)CCOCC1)c1ccc(-c2cn[nH]c2)cc1 [Example 176, hydrochloride] > 7.00

====

We begin with a simple list: items and their reported pIC50.
# subjectOfTest: UniProt P35408
# test: In vitro human EP4 functional antagonist activity using BRET biosensors (cAMP EPAC biosensor, TCS2510 stimulation)
# conditionsUsed: antagonist activity vs EC60 TCS2510, hEP4 in HEK-293 T cells
pIC50: −log10 of the molar value. Counter-ions that a name gives are not always drawn.

Worked examples follow.
>>> result("C[C@H](NC(=O)C1(N2CC[C@@H](Oc3cccc(C(F)(F)F)c3)C2)CCOCC1)c1ccc(C(N)=O)cc1 [Example 168, hydrochloride]")
"> 7.00"
>>> result("C[C@H](NC(=O)C1(NCCOc2cccc(Cl)c2)CCCCC1)c1ccc(C(=O)O)cc1 [Example 56, hydrochloride]")
"> 7.00"
>>> result("O=C(O)c1ccc(C2(NC(=O)C3(OCCOc4cccc(Cl)c4)CCOCC3)CC2)cc1")
"> 7.00"
>>> result("O=C(O)c1ccc(C2(NC(=O)C3(N4CC[C@H](Oc5cccc(Cl)c5)C4)CCOCC3)CC2)cc1 [Example 139, hydrochloride]")
"> 6.00"
>>> result("C[C@H](NC(=O)C1(N2CC[C@@H](Oc3cccc(C(F)(F)F)c3)C2)CCOCC1)c1ccc(F)cc1 [Example 187, hydrochloride]")
"> 6.00"

What measured pIC50 goes with C[C@H](NC(=O)C(C)(C)N1CC[C@@H](Oc2cccc(C(F)(F)F)c2)C1)c1ccc(S(C)(=N)=O)cc1 (stereo partly shown) [Example 205, hydrochloride] ? > 7.00

Any idea what its pIC50 is? The compound is CN(CCOc1cccc(Cl)c1)C1(C(=O)NC2(c3ccc(C(=O)O)cc3)CC2)CCOCC1 [Example 29, hydrochloride] > 7.00

====

# subjectOfTest: human EP4 (hEP4) receptor (Homo sapiens, UniProt P35408)
# Sequence (P35408 whole entry): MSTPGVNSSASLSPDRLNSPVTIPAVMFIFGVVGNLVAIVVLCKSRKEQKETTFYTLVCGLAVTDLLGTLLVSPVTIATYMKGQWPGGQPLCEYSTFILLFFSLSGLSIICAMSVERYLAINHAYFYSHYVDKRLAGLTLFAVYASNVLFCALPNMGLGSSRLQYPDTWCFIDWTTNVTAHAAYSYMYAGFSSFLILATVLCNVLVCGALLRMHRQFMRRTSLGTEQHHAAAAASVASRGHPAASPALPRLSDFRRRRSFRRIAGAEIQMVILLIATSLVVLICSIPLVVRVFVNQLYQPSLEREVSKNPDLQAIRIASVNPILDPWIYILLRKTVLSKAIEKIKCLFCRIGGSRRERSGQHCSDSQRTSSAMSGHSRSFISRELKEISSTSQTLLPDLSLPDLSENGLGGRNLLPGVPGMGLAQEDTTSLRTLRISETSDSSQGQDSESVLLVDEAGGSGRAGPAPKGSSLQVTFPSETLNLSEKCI
# test: In vitro human EP4 functional antagonist activity using BRET biosensors (cAMP EPAC biosensor, TCS2510 stimulation)
# conditionsUsed: antagonist activity vs EC60 TCS2510, hEP4 in HEK-293 T cells
pIC50: −log10 of the molar value. Where a name gives a salt, the structure may show the parent alone.
Measured pIC50 values are reported for all entries that follow.

Use the examples below as a reference point.
>>> result("C[C@H](NC(=O)C1(N2CC[C@@H](Oc3cccc(C(F)(F)F)c3)C2)CCOCC1)c1ccc(S(C)(=N)=O)cc1 (stereo partly shown) [Example 180, hydrochloride]")
"> 7.00"
>>> result("CCN(CCOc1cccc(Cl)c1)C1(C(=O)N[C@@H](C)c2ccc(C(=O)O)cc2)CCOCC1 [Example 10, hydrochloride]")
"> 7.00"
>>> result("C[C@H](NC(=O)C1(NCCOc2ccccc2)CCOCC1)c1ccc(C(=O)O)cc1 [Example 1, hydrochloride]")
"> 7.00"

Give the reported pIC50 for C[C@H](NC(=O)C1(N2CC[C@@H](Oc3ccccc3)C2)CCOCC1)c1ccc(C(=O)O)cc1 [Example 152, hydrochloride] (system: human EP4 (hEP4) receptor (Homo sapiens, UniProt P35408)). > 7.00

What reported pIC50 corresponds to C[C@H](NC(=O)C1(NCCOc2ccccc2)CCCCC1)c1ccc(C(=O)O)cc1 [Example 55, hydrochloride] on human EP4 (hEP4) receptor (Homo sapiens, UniProt P35408)? > 6.00

Field: pIC50 (human EP4 (hEP4) receptor (Homo sapiens, UniProt P35408)). Entry: C[C@H](NC(=O)C1(N2CC[C@@H](Oc3cccc(F)c3)C2)CCOCC1)c1ccc(C(=O)O)cc1 [Example 142, hydrochloride] > 7.00

For human EP4 (hEP4) receptor (Homo sapiens, UniProt P35408), provide pIC50 of CN(CCOc1ccccc1)C1(C(=O)NC2(c3ccc(C(=O)O)nc3)CC2)CCOCC1 [Example 53, hydrochloride] please. > 6.00

Checklist item: pIC50 tested on human EP4 (hEP4) receptor (Homo sapiens, UniProt P35408), entry C[C@H](NC(=O)C1(NCCOc2cc(F)cc(F)c2)CCOCC1)c1ccc(C(=O)O)cc1 [Example 16, hydrochloride] , value? > 7.00

Query the reported pIC50 for human EP4 (hEP4) receptor (Homo sapiens, UniProt P35408); item: C[C@H](NC(=O)C1(N2CC[C@@H](Oc3cccc(C(F)(F)F)c3)C2)CCOCC1)c1ccc(-c2nn[nH]n2)cc1 [Example 175, hydrochloride] > 7.00

Query the reported pIC50 for human EP4 (hEP4) receptor (Homo sapiens, UniProt P35408); item: C[C@H](NC(=O)C1(N2CC[C@@H](Oc3cccc(Cl)c3)C2)CCC(F)(F)CC1)c1ccc(C(=O)O)cc1 [Example 156, hydrochloride] > 7.00

Observed pIC50 on human EP4 (hEP4) receptor (Homo sapiens, UniProt P35408) for C[C@H](NC(=O)C1(N2CC[C@@H](Oc3cccc(Cl)c3)C2)CCCCC1)c1ccc(C(=O)O)cc1 [Example 155, hydrochloride] , please. > 7.00

What measured pIC50 is associated with "C[C@H](NC(=O)C1(c2ccc(OCCC3CCCCC3)cn2)CCCC1)c1ccc(C(=O)O)cc1" on human EP4 (hEP4) receptor (Homo sapiens, UniProt P35408)? > 6.00

# get_value(readout= pIC50, system= human EP4 (hEP4) receptor (Homo sapiens, UniProt P35408)) for C[C@H](NC(=O)C1(N2CC[C@@H](Oc3cccc(C(F)(F)F)c3)C2)CCOCC1)c1ccccc1 [Example 183, hydrochloride] > 6.00

====

In this section we review reported IC50 values for a set of compounds.
# subjectOfTest: human EP4 (hEP4) receptor (Homo sapiens)
# test: In vitro human EP4 functional antagonist activity using BRET biosensors (cAMP EPAC biosensor, TCS2510 stimulation)
# conditionsUsed: antagonist activity vs EC60 TCS2510, hEP4 in HEK-293 T cells
Counter-ions that a name gives are not always drawn.

Worked examples follow.
>>> result("C[C@H](NC(=O)C1(N(C)CCOc2ccccc2)CCOC1)c1ccc(C(=O)O)cc1 (stereo partly shown) [Example 74, hydrochloride]")
"< 100 nM"
>>> result("C[C@H](NC(=O)C1(N2CC[C@@H](Oc3cccc(C(F)(F)F)c3)C2)CCCCC1)c1ccc(C(=O)O)cc1 [Example 162, hydrochloride]")
"< 100 nM"
>>> result("C[C@H](NC(=O)C1(c2ccc(OCc3ccccc3)cc2)CCCC1)c1ccc(C(=O)O)cc1")
"< 100 nM"
>>> result("C[C@H](NC(=O)C1(N(C)CCOc2cccc(Cl)c2)CCOCC1)c1ccc(C(=O)O)cc1 [Example 9, hydrochloride]")
"< 100 nM"
>>> result("CC(C)CCOc1cccc(C2(C(=O)N[C@@H](C)c3ccc(C(=O)O)cc3)CCOCC2)c1")
"< 1000 nM"
>>> result("C[C@H](NC(=O)C1(N(C)CCOc2ccccc2)CCOCC1)c1ccc(C(N)=O)cc1")
"< 1000 nM"

Let us move to another entry and its IC50.
Which IC50 value is on record for C[C@H](NC(=O)C1(NCCOc2ccccc2)CCC1)c1ccc(C(=O)O)cc1 [Example 69, hydrochloride] ? < 1000 nM
